# TESTED_ON: SARS-CoV-2 spike protein trimer, wild type (SARS-CoV-2, UniProt P0DTC2 16-1213)
# EXPERIMENT_SUMMARY: ELISA, purified IgG
METRIC: binding result

[[record]]
binder = "SEQ ID NO 15 (antibody, V domains shown, As m4) VH: EVQLVESGGGLVQPGGSLRLSCTVSGFSLSTYAMSWVRQAPGKGLEWIGVIASNADTYYASWAKGRFTISRDNSKNTLYLQMNSLRAEDTAVYYCARHPGSAGYGYAVYYAMDPWGQGTLVTVSS VL: DIQMTQSPSSLSASVGDRVTITCQASQKIHYAINWYQQKPGKAPKLLIYGTSYLGGGVPSRFSGSGSGTDFTLTISSLQPEDFATYYCQQGYIVPNSFGGGTKVEIK"
readout_value = "binds"

[[record]]
binder = "SEQ ID NO 17 (antibody, V domains shown, As m4) VH: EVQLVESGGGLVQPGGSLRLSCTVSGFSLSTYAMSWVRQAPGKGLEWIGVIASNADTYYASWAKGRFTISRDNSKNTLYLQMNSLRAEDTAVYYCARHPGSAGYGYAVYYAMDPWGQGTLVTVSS VL: DIQMTQSPSSLSASVGDRVTITCQASQPIYYGINWYQQKPGKAPKLLIYGHTYRAWGVPSRFSGSGSGTDFTLTISSLQPEDFATYYCQQGYRVGLGFGGGTKVEIK"
readout_value = "binds"

[[record]]
binder = "SEQ ID NO 12 (antibody, V domains shown, also called selected clone from LxC libraries; LxC clone) VH: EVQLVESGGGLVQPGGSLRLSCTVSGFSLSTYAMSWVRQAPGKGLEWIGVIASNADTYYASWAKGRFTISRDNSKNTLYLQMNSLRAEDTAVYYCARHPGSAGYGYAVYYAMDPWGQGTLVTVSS VL: DIQMTQSPSSLSASVGDRVTITCQASQPIHYAINWYQQKPGKAPKLLIYGTSHRKMGVPSRFSGSGSGTDYTLTISSLQPEDFATYYCQQGYIVALKFGGGTKVEIK"
readout_value = "binds"

